Where these numbers come from: patent US20150258192A1

# system tested: BTK(R28H)(h) (Homo sapiens, UniProt Q06187, R28H)
# Sequence (Q06187 whole entry R28H): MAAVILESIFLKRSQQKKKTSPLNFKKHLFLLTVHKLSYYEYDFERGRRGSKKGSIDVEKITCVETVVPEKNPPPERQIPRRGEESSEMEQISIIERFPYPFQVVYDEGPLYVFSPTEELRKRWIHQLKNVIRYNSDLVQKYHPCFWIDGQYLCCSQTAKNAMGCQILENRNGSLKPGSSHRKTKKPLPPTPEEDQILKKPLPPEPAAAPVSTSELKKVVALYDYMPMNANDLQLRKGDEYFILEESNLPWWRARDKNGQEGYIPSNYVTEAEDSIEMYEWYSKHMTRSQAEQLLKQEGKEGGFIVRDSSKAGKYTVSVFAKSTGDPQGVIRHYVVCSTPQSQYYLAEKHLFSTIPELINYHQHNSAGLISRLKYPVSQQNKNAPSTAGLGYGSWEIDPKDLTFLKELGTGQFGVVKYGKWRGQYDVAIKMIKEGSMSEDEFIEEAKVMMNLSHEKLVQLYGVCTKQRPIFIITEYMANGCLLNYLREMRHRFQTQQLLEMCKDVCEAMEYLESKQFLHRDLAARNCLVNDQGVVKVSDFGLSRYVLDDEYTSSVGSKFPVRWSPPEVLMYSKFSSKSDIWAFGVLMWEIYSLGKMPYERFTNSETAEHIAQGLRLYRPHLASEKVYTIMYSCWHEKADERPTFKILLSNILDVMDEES
# test name: Kinase Profiling Assay
# Format: biochemical
# condition info: peptide 100 μM
No end group written: not given here.
endpoint: % activity (%)

• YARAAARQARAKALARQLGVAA [MMI-0100] = 91
• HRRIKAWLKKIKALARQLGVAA (Mammal) [MMI-0500] = 10
• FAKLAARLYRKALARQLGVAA [MMI-0300] = 74
• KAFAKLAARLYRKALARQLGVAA [MMI-0400] = 24

----------
# system tested: PKCε(h) (Homo sapiens)
# Sequence (Q02156 1-737): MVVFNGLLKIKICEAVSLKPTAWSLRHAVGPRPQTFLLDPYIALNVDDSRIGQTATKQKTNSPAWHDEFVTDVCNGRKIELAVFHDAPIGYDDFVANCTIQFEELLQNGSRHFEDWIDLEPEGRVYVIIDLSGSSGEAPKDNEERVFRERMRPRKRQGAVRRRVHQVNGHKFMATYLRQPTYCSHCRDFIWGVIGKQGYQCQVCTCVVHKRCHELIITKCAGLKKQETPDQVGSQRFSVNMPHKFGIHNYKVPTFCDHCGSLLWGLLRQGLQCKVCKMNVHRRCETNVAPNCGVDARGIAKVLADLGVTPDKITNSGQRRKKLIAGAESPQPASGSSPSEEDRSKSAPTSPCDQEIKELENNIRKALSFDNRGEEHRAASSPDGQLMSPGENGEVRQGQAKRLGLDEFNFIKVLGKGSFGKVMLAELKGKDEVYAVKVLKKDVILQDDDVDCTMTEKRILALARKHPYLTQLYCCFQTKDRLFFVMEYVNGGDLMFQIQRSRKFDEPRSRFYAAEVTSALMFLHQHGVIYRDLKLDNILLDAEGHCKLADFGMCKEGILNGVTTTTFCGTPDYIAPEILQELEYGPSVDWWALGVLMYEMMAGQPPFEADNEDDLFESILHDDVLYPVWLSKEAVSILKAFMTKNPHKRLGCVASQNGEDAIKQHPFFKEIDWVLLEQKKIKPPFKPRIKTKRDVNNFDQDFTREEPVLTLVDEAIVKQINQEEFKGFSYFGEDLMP
# test name: Kinase Profiling Assay
# Assay type: biochemical
# condition info: peptide 100 μM
Measured % activity of individual entries
endpoint: % activity (%)

- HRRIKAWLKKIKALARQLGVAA (Mammal) [MMI-0500]: 23
- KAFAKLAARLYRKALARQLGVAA [MMI-0400]: 59
- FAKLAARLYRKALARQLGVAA [MMI-0300]: 79
- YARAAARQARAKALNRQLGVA (Mammal) [MMI-0200]: 98

----------
# system tested: PKG1α(h) (Homo sapiens, UniProt Q13976)
# Sequence (Q13976 1-671): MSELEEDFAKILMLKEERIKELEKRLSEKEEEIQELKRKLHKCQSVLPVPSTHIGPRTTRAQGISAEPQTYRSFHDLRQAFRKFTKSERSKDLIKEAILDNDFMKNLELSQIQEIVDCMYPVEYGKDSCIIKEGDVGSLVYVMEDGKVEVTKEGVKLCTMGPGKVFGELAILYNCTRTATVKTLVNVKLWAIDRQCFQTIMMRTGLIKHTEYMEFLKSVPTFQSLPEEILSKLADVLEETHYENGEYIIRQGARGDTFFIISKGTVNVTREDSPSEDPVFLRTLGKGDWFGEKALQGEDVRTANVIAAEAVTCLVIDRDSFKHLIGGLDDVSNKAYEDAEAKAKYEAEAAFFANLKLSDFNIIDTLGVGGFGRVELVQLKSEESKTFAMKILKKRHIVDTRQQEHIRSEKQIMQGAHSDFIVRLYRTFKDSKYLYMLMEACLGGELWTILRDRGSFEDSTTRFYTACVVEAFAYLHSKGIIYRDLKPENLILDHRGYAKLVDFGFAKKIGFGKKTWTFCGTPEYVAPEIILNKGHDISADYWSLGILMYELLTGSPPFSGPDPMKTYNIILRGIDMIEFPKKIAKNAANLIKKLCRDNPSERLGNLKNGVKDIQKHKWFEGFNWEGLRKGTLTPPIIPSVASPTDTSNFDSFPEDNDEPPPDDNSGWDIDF
# test name: Kinase Profiling Assay
# Type: biochemical
# condition info: peptide 100 μM
No end group written: not given here.
Measured % activity of individual entries
endpoint: % activity

* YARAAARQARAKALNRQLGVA (Mammal) [MMI-0200] | 70%
* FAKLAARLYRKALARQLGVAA [MMI-0300] | 64%
* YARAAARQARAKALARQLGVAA [MMI-0100] | 82%
* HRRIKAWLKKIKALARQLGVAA (Mammal) [MMI-0500] | 25%
* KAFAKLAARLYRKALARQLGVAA [MMI-0400] | 58%

----------
Measured % activity of individual entries
# system tested: MSK2(h) (Homo sapiens)
# Construct: purchased Millipore
# Sequence (O75676 whole entry): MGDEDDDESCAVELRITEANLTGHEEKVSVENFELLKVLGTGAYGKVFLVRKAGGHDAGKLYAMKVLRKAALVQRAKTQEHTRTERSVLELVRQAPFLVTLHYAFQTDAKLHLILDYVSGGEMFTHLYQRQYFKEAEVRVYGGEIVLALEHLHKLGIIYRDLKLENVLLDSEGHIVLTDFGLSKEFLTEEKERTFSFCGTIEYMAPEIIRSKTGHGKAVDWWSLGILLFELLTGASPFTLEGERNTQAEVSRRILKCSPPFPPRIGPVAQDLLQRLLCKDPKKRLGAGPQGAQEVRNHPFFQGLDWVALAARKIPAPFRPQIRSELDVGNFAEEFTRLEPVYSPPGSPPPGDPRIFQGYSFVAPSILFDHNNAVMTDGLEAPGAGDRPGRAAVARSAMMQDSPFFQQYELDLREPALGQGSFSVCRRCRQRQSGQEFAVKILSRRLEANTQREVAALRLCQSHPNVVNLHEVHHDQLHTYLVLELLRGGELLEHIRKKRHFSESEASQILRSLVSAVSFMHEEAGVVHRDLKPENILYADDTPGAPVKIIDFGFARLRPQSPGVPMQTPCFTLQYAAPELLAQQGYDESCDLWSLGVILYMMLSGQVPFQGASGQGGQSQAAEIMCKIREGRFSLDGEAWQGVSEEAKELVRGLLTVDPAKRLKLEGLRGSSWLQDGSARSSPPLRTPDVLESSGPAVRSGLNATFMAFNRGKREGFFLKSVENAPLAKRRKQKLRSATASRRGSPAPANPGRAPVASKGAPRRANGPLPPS
# test name: Kinase Profiling Assay
# Format: biochemical
# condition info: peptide 100 μM
endpoint: % activity (%)

- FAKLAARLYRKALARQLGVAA [MMI-0300]: 56
- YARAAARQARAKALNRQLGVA (Mammal) [MMI-0200]: 88
- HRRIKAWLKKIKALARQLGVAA (Mammal) [MMI-0500]: 14
- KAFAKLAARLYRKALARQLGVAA [MMI-0400]: 52

----------
# system tested: CaMKI(h) (Homo sapiens)
# test name: Kinase Profiling Assay
# Assay type: biochemical
# condition info: peptide 100 μM
Measured % activity of individual entries
endpoint: % activity (%)

* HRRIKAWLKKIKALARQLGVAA (Mammal) [MMI-0500] | -1
* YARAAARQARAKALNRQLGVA (Mammal) [MMI-0200] | 21
* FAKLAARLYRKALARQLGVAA [MMI-0300] | 1
* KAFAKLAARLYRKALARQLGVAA [MMI-0400] | 0

----------
# system tested: CLK3(h) (Homo sapiens, UniProt P49761)
# Sequence (P49761 whole entry): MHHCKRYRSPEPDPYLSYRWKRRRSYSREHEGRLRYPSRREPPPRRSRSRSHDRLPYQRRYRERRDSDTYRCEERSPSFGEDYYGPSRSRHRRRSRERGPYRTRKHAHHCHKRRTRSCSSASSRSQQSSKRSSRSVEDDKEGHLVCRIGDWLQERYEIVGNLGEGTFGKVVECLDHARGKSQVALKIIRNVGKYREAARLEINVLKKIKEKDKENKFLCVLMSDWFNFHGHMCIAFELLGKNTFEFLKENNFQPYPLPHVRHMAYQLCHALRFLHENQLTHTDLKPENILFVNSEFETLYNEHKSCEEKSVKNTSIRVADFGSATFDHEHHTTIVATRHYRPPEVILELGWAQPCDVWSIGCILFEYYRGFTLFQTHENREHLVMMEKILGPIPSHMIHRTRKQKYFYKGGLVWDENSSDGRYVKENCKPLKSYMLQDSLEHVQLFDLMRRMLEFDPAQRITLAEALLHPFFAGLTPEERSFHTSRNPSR
# test name: Kinase Profiling Assay
# Type: biochemical
# condition info: peptide 100 μM
No end group written: not given here.
endpoint: % activity

* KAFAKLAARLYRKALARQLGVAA [MMI-0400] | 84%
* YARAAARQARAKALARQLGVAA [MMI-0100] | 108%
* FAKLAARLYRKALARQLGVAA [MMI-0300] | 61%
* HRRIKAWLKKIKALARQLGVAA (Mammal) [MMI-0500] | 76%
* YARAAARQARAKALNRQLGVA (Mammal) [MMI-0200] | 76%

----------
Measured % activity of individual entries
# system tested: Rsk2(h) (Homo sapiens)
# Sequence (P51812 whole entry): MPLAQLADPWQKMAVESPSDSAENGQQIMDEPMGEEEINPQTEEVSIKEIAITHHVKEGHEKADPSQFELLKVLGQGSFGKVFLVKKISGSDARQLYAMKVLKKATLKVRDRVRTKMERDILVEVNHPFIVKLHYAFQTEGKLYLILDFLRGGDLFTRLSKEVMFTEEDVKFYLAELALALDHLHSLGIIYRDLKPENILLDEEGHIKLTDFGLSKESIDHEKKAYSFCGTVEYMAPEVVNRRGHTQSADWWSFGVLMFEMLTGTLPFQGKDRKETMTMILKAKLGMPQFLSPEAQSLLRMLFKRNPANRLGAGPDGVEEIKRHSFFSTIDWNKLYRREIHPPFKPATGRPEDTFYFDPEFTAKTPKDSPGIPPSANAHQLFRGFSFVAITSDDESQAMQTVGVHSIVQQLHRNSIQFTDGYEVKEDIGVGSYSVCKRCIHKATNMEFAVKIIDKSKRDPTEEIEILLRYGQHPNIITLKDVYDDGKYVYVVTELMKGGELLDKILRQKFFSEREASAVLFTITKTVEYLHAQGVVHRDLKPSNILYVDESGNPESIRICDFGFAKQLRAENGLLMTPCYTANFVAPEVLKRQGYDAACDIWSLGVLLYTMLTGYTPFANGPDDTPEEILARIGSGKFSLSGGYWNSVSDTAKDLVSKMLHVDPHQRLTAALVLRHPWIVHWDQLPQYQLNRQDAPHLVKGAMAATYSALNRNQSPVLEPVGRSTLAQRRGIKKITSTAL
# test name: Kinase Profiling Assay
# Assay type: biochemical
# condition info: peptide 100 μM
endpoint: % activity (%)

- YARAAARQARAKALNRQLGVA (Mammal) [MMI-0200]: 101
- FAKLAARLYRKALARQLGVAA [MMI-0300]: 51
- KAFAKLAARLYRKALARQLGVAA [MMI-0400]: 38
- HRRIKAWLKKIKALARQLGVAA (Mammal) [MMI-0500]: 14

----------
# system tested: Itk(h) (Homo sapiens)
# Construct: purchased Millipore
# Sequence (Q08881 1-620): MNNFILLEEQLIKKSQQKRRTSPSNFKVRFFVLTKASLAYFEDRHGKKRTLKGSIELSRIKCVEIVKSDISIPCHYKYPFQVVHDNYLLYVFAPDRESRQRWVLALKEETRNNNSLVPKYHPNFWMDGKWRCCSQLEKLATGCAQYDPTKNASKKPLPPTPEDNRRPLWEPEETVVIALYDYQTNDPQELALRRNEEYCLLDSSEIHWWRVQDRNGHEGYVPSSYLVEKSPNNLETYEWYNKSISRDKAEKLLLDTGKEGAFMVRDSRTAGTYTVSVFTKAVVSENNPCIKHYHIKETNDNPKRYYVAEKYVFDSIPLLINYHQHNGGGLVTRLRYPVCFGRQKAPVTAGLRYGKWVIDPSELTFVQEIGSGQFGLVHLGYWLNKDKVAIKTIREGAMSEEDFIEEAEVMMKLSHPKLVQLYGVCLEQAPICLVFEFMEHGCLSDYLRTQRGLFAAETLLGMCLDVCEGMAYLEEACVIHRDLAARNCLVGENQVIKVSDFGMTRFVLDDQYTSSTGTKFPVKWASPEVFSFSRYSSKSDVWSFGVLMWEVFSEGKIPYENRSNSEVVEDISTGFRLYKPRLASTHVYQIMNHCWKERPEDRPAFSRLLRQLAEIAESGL
# test name: Kinase Profiling Assay
# Type: biochemical
# condition info: peptide 100 μM
No end group written: not given here.
Measured % activity of individual entries
endpoint: % activity (%)

• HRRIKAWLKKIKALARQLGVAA (Mammal) [MMI-0500] = 7
• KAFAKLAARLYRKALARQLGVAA [MMI-0400] = 63
• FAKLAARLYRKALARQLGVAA [MMI-0300] = 77
• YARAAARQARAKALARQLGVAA [MMI-0100] = 99
• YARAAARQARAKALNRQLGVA (Mammal) [MMI-0200] = 98
